For each record, write down the corresponding VEGF ELISA.
Test system: Vascular Endothelial Growth Factor (VEGF) production by human melanoma cell line RPMI-7951
Test: VEGF ELISA, RPMI-7951
Details: RPMI-7951; 5 μM; DMSO control 3713
Answers are plain numbers, in pg/ml/well.

# annotated cases, reported VEGF ELISA shown
>>> print(df.to_string())
                                   compound  assay_result
0   O=C(C=Cc1ccc(O)cc1)C=Cc1ccc(O)cc1 [EF1]          1923
1      C(=C\c1ccccc1)/S/C=C/c1ccccc1 [EF15]          2361
2   O=C(C=Cc1cccc(O)c1)C=Cc1cccc(O)c1 [EF3]          2092
3  COc1ccc(CCC(O)CCc2ccc(OC)c(OC)c2)cc1OC [MD279L, 1,5-Bis(3,4-dimethoxyphenyl)penta-3-ol]          2235
4       O=C(C=Cc1ccccc1O)C=Cc1ccccc1O [EF2]          1295
5  O=C(C=Cc1ccc(F)cc1F)C=Cc1ccc(F)cc1F [EF9]          1868

Take each entry in turn and give its VEGF ELISA.
1. O=C(C=Cc1ccccc1F)C=Cc1ccccc1F [EF8]
2. COc1cc(/C=C/C(=O)CC(=O)/C=C/c2ccc(O)c(OC)c2)ccc1O [Curcumin]
3. O=C1CCC(N2C(=O)c3ccccc3C2=O)C(=O)N1 (stereo not shown) [Thalidomide, reference compound]
4. CN(C)/N=N/c1[nH]cnc1C(N)=O [Decabazine, Decarbazine, reference compound]

[A]
[2208, 3989, 1810, 1136]

====

Tested on: ACHN
Experiment: cells
Details: Homo sapiens, 48 h, read-out: Median Lethal Concentration (LC50)
Assignment: determine reported CC50 for the given compounds.
One number for each entry, in µM.

# example entries with known answers
>>> print(df.to_string())
                                   compound  assay_result
0  COc1cc(/C=C/C(=O)CC(=O)/C=C/c2ccc(O)c(OC)c2)ccc1O          63.1
1          OC(CCc1ccc(F)cc1F)CCc1ccc(F)cc1F          56.3
2  CC1(/C=C/c2ccccc2O)C=Cc2ccccc2O1 (stereo not drawn)            54
3  CC(=O)O.O=C1C(=Cc2ccccc2F)CNCC1=Cc1ccccc1F           5.6
4       O=C(C=Cc1ccc(F)cc1F)C=Cc1ccc(F)cc1F          54.8

[Q] What reported CC50 corresponds to O=C1C(=Cc2ccccc2O)CCCC1=Cc1ccccc1O on ACHN?
[A] 32.7

====

System: OVCAR-3
Conditions: read-out: Median Lethal Concentration (LC50); Ovarian Cancer, OVCAR-3; 48 hours, SRB assay
Reported endpoint: CC50
The number alone won't do; follow it with the unit.

[Q] CC50 for O=C1C(=Cc2ccccc2O)COCC1=Cc1ccccc1O [EF25] ?
[A] 23.5 µM

====

System: NCI-H226
Settings: read-out: Median Lethal Concentration (LC50); Non-Small Cell Lung Cancer, NCI-H226; 48 hours, SRB assay
Reported endpoint: CC50 (µM)
Numbers only, in µM.

[Q] Record request: CC50 value, item O=C1C(=Cc2ccccc2O)COCC1=Cc1ccccc1O
[A] 58

====

Test system: Sixty human tumor cell lines
Test: cells
Conditions: 48 h, read-out: Median Lethal Concentration (LC50), Mean
Reported endpoint: CC50 (µM)
Answers are plain numbers, in µM.

Examples with their reported CC50 follow.
                                   compound  reported_endpoint  unit_abbrev  assay_result
0        O=C1C(=Cc2ccccc2O)CCCC1=Cc1ccccc1O               CC50           µM          33.9
1       O=C(C=Cc1ccc(F)cc1F)C=Cc1ccc(F)cc1F               CC50           µM          52.5
2  CC1(/C=C/c2ccccc2O)C=Cc2ccccc2O1 (stereo not drawn)               CC50           µM          61.7
3          OC(CCc1ccc(F)cc1F)CCc1ccc(F)cc1F               CC50           µM          64.6
4  CC(=O)O.O=C1C(=Cc2ccccc2F)CNCC1=Cc1ccccc1F               CC50           µM          13.2

Turning now to a further record.
[Q] Would you mind telling me what CC50 value was observed for COc1cc(/C=C/C(=O)CC(=O)/C=C/c2ccc(O)c(OC)c2)ccc1O ?
[A] 66

====

System: COLO 205
Assay: cells
Conditions: Homo sapiens, COLO 205, 48 h, read-out: Median Growth Inhibitory Concentration (GI50)
Answer each item with its documented log10(GI50).
Use the decimal logarithm of GI50 (µM).

In [3]: df
Out[3]:
                                   compound  measured_on  assay_result
0       O=C(C=Cc1ccc(F)cc1F)C=Cc1ccc(F)cc1F     COLO 205          0.88
1  COc1cc(/C=C/C(=O)CC(=O)/C=C/c2ccc(O)c(OC)c2)ccc1O     COLO 205          1.10
2        O=C1C(=Cc2ccccc2O)CCCC1=Cc1ccccc1O     COLO 205          0.30
3  CC1(/C=C/c2ccccc2O)C=Cc2ccccc2O1 (stereo not drawn)     COLO 205          1.24
4          OC(CCc1ccc(F)cc1F)CCc1ccc(F)cc1F     COLO 205          1.24

API: the following record is the query input.
[Q] Looking for the measured log10(GI50) of CC(=O)O.O=C1C(=Cc2ccccc2F)CNCC1=Cc1ccccc1F , can you help?
[A] -0.10

====

Kindly state CC50 for each of the entries shown.
System: OVCAR-5
Assay: cells
Settings: Homo sapiens, OVCAR-5, 48 h, read-out: Median Lethal Concentration (LC50)
Answers are plain numbers, in µM.

Solved entries (count: 2):
                                   molecule  assay_result
0  O=C1C(=Cc2ccccc2O)CCCC1=Cc1ccccc1O [EF4]          55.9
1  O=C(C=Cc1ccc(F)cc1F)C=Cc1ccc(F)cc1F [EF9]          63.3

Batch request: CC50 per item, same order as input.
1. OC(CCc1ccc(F)cc1F)CCc1ccc(F)cc1F [EF19, 1,5-Bis(2,4-difluorophenyl)-pentan-3-ol]
2. CC1(/C=C/c2ccccc2O)C=Cc2ccccc2O1 (stereo not drawn) [EF7]
3. COc1cc(/C=C/C(=O)CC(=O)/C=C/c2ccc(O)c(OC)c2)ccc1O [Curcumin]

[A]
61.1
58.4
79.4

[Q] Item CC(=O)O.O=C1C(=Cc2ccccc2F)CNCC1=Cc1ccccc1F [EF24] has what recorded CC50?
[A] 9.2

====

System: HL-60 (TB)
Assay: cells
Conditions: Homo sapiens, HL-60, 48 h, read-out: Median Lethal Concentration (LC50)
What CC50 was measured for each of the following?

                                   compound  assay_result
0  COc1cc(/C=C/C(=O)CC(=O)/C=C/c2ccc(O)c(OC)c2)ccc1O [Curcumin]      < 100 µM
1  CC(=O)O.O=C1C(=Cc2ccccc2F)CNCC1=Cc1ccccc1F [EF24]      > 100 µM

Would you kindly look at the next entry?
[Q] Fill in the recorded CC50 for this compound, with HL-60 (TB) as test system: O=C(C=Cc1ccc(F)cc1F)C=Cc1ccc(F)cc1F [EF9]
[A] > 100 µM

====

System: RPMI-7951 human melanoma
Assay: Neutral Red Assay, cell viability, RPMI-7951
Conditions: RPMI-7951; 5 μM; DMSO = 100
Reported endpoint: Cell Viability (%)
Answers are plain numbers, in %.

Please review the entries below; each comes with its answer.
In [3]: df
Out[3]:
                                   compound               measured_on  assay_result
0       COc1ccc(C=CC(=O)C=Cc2ccc(OC)cc2)cc1  RPMI-7951 human melanoma            90
1  COc1ccc(CCC(O)CCc2ccc(OC)c(OC)c2)cc1OC [MD279L, 1,5-Bis(3,4-dimethoxyphenyl)penta-3-ol]  RPMI-7951 human melanoma           110
2  COc1ccc(CCC(=O)CCc2ccc(OC)c(OC)c2)cc1OC [MD279U, 1,5-Bis(3,4-dimethoxyphenyl)penta-3-one]  RPMI-7951 human melanoma           112
3  COc1cc(C=C2CCCC(=Cc3ccc(O)c(OC)c3)C2=O)ccc1O  RPMI-7951 human melanoma            91

[Q] Could you tell me which Cell Viability is on file for COc1ccc(/C=C/C(=O)/C=C/c2ccc(OC)c(OC)c2)cc1OC ?
[A] 101

Data origin: patent US7371766B2
